Below is a list of entries, each paired with its recorded maximum observed lethal fraction value.
Tested on: U2OS PTBP1-KO
EXPERIMENTAL DETAILS: maximum observed lethal fraction; higher = more cell death;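 also: FLICK assay: SYTOX Green fluorescence of dead cells tracked over time after drugging in 96-well plates, with total cell counts taken from Triton X-100 lysed wells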
RECORDED CONDITIONS: 0.0316 µM

Observe how each entry below is paired with its result.
CCN1CCN(Cc2ccc(Nc3ncc(F)c(-c4cc(F)c5nc(C)n(C(C)C)c5c4)n3)nc2)CC1 ... 0.0787
CC(C)C[C@H](NC(=O)[C@H](Cc1ccccc1)NC(=O)c1cnccn1)B(O)O ... 0.637

--- query ---
Report maximum observed lethal fraction for CC(=O)N[C@H]1[C@@H](O[C@@H]2O[C@H](CC(O)[C@H]3O[C@@H](n4ccc(=O)[nH]c4=O)[C@H](O)[C@@H]3O)[C@H](O)[C@H](O)[C@H]2NC(=O)/C=C/CC(C)C)O[C@H](CO)[C@@H](N)[C@@H]1O (stereo partly drawn) please.
0.0731

* * *

System: U2OS PTBP1-KO
EXPERIMENTAL DETAILS: maximum observed lethal fraction; higher = more cell death
RECORDED CONDITIONS: 3.16 µM
Use Yes when the recorded maximum observed lethal fraction is no lower than 0.1; use No when it is lower.

Use the examples below as a reference point.
Nc1cc(C(F)(F)F)c(-c2cc(N3CCOCC3)nc(N3CCOCC3)n2)cn1 ... Yes
NC(=O)c1cccc2cn(-c3ccc([C@@H]4CCCNC4)cc3)nc12 ... No
O=C(NOC[C@H](O)CO)c1ccc(F)c(F)c1Nc1ccc(I)cc1F ... Yes
NC1(C(=O)N[C@@H](CCO)c2ccc(Cl)cc2)CCN(c2nc[nH]c3nccc2-3)CC1 ... Yes
CC(=O)c1c(C)c2cnc(Nc3ccc(N4CCNCC4)cn3)nc2n(C2CCCC2)c1=O ... No
CC(C)C[C@@H](C=O)NC(=O)[C@H](CC(C)C)NC(=O)[C@H](CC(C)C)NC(=O)OCc1ccccc1 ... Yes

State whether the measured maximum observed lethal fraction reaches 0.1, counting equality as reaching it, for O=C(CCCCCCC(=O)Nc1ccccc1)NO
Yes

Given the entry Cc1cc(Nc2ccc(NC(=O)c3ccc(Nc4ccnc5ccccc45)cc3)cc2)nc(N)n1 , answer whether its maximum observed lethal fraction meets or surpasses 0.1.
Yes

* * *

Test system: U2OS BAX/BAK1 DKO
EXPERIMENTAL DETAILS: maximum observed lethal fraction; higher = more cell death
RECORDED CONDITIONS: 0.00316 µM
RECORDED ENDPOINT: maximum observed lethal fraction
Give a plain numeric answer without units written out.

Examples with answers:
CC(C)[C@]12O[C@H]1[C@@H]1O[C@]13[C@]1(O[C@H]1C[C@H]1C4=C(CC[C@@]13C)C(=O)OC4)[C@@H]2O [Triptolide] ... 0.067
CC(=O)[C@]1(O)Cc2c(O)c3c(c(O)c2[C@@H](O[C@H]2C[C@H](N)[C@H](O)[C@H](C)O2)C1)C(=O)c1ccccc1C3=O ... 0.0795
Cc1c2oc3c(C)ccc(C(=O)N[C@@H]4C(=O)N[C@H](C(C)C)C(=O)N5CCC[C@H]5C(=O)N(C)CC(=O)N(C)[C@@H](C(C)C)C(=O)O[C@@H]4C)c3nc-2c(C(=O)N[C@@H]2C(=O)N[C@H](C(C)C)C(=O)N3CCC[C@H]3C(=O)N(C)CC(=O)N(C)[C@@H](C(C)C)C(=O)O[C@@H]2C)c(N)c1=O ... 0.0754
Cc1[nH]c2ccccc2c1CCNCc1ccc(/C=C/C(=O)NO)cc1 ... 0.0768

Okay, now this compound:
Item under review: CC(C)C[C@H](NC(=O)[C@H](Cc1ccccc1)NC(=O)c1cnccn1)B(O)O . Reported maximum observed lethal fraction?
0.0694

* * *

Tested on: U2OS PTBP1-KO
EXPERIMENTAL DETAILS: maximum observed lethal fraction; higher = more cell death
RECORDED CONDITIONS: 0.0316 µM
Examples of compounds with documented maximum observed lethal fraction follow.

Illustrative cases are given below, each with its answer.
Cc1c2oc3c(C)ccc(C(=O)N[C@@H]4C(=O)N[C@H](C(C)C)C(=O)N5CCC[C@H]5C(=O)N(C)CC(=O)N(C)[C@@H](C(C)C)C(=O)O[C@@H]4C)c3nc-2c(C(=O)N[C@@H]2C(=O)N[C@H](C(C)C)C(=O)N3CCC[C@H]3C(=O)N(C)CC(=O)N(C)[C@@H](C(C)C)C(=O)O[C@@H]2C)c(N)c1=O ... 0.206
CN(C)C/C=C/C(=O)Nc1ccc(C(=O)N2CCC[C@@H](Nc3ncc(Cl)c(-c4c[nH]c5ccccc45)n3)C2)cc1 ... 0.0612
CN[C@@H]1C[C@H]2O[C@@](C)([C@@H]1OC)n1c3ccccc3c3c4c(c5c6ccccc6n2c5c31)C(=O)NC4 ... 0.77
CN(C)C(=O)c1cc2cnc(Nc3ccc(N4CCNCC4)cn3)nc2n1C1CCCC1 ... 0.0595
CN1CC[C@H](c2c(O)cc(O)c3c(=O)cc(-c4ccccc4Cl)oc23)[C@H](O)C1 ... 0.067
Cc1[nH]c2ccccc2c1CCNCc1ccc(/C=C/C(=O)NO)cc1 ... 0.527
CO[C@H]1C[C@@H]2CC[C@@H](C)[C@@](O)(O2)C(=O)C(=O)N2CCCC[C@H]2C(=O)O[C@H]([C@H](C)C[C@@H]2CC[C@@H](O)[C@H](OC)C2)CC(=O)[C@H](C)/C=C(\C)[C@@H](O)[C@@H](OC)C(=O)[C@H](C)C[C@H](C)/C=C/C=C/C=C/1C ... 0.0686
CN(C)C/C=C/C(=O)Nc1ccc(C(=O)Nc2cccc(Nc3ncc(Cl)c(-c4c[nH]c5ccccc45)n3)c2)cc1 ... 0.239
C=CC(=O)Nc1ccc(C(=O)Nc2[nH]nc3c2CN(C(=O)N[C@H](CN(C)C)c2ccccc2)C3(C)C)cc1 ... 0.0724
COc1cc([C@@H]2c3cc4c(cc3[C@@H](O[C@@H]3O[C@@H]5CO[C@@H](c6cccs6)O[C@H]5[C@H](O)[C@H]3O)[C@H]3COC(=O)[C@H]23)OCO4)cc(OC)c1O [Teniposide] ... 0.079

Now for a further compound.
Please look up its maximum observed lethal fraction: C/C=C(/C)C(=O)O[C@H]1C(C)=C2[C@H]([C@@H]1OC(=O)CCCCCCC)[C@@](C)(OC(C)=O)C[C@H](OC(=O)CCC)[C@@]1(O)[C@H]2OC(=O)[C@@]1(C)O
0.228

* * *

System: U2OS PTBP1-KO
EXPERIMENTAL DETAILS: maximum observed lethal fraction; higher = more cell death
RECORDED CONDITIONS: 0.316 µM
Mark criterion not met for maximum observed lethal fraction values under 0.07, and criterion met for everything at or above.

Please review the entries below; each comes with its answer.
O=C(NOC[C@H](O)CO)c1ccc(F)c(F)c1Nc1ccc(I)cc1F ... criterion met
C[C@H]1CCC/C=C/[C@@H]2C[C@H](O)C[C@H]2[C@H](O)/C=C/C(=O)O1 ... criterion met
CNCc1ccc(-c2[nH]c3cc(F)cc4c3c2CCNC4=O)cc1 ... criterion not met
NC1(C(=O)N[C@@H](CCO)c2ccc(Cl)cc2)CCN(c2nc[nH]c3nccc2-3)CC1 ... criterion met
NC(=O)c1cccc2cn(-c3ccc([C@@H]4CCCNC4)cc3)nc12 ... criterion not met
CC(=O)[C@]1(O)Cc2c(O)c3c(c(O)c2[C@@H](O[C@H]2C[C@H](N)[C@H](O)[C@H](C)O2)C1)C(=O)c1ccccc1C3=O ... criterion met

Query compound follows.
# check: maximum observed lethal fraction of CN1CC[C@H](c2c(O)cc(O)c3c(=O)cc(-c4ccccc4Cl)oc23)[C@H](O)C1 is greater than or equal to 0.07
criterion met

* * *

Tested on: U2OS BAX/BAK1 DKO
EXPERIMENTAL DETAILS: maximum observed lethal fraction; higher = more cell death
RECORDED CONDITIONS: 0.01 µM
Note to self: values exactly at 0.07 are label 1. So maximum observed lethal fraction at or above 0.07 is label 1, below is label 0.

Exam item: decide whether the reported maximum observed lethal fraction for Cc1c2oc3c(C)ccc(C(=O)N[C@@H]4C(=O)N[C@H](C(C)C)C(=O)N5CCC[C@H]5C(=O)N(C)CC(=O)N(C)[C@@H](C(C)C)C(=O)O[C@@H]4C)c3nc-2c(C(=O)N[C@@H]2C(=O)N[C@H](C(C)C)C(=O)N3CCC[C@H]3C(=O)N(C)CC(=O)N(C)[C@@H](C(C)C)C(=O)O[C@@H]2C)c(N)c1=O [Actinomycin-D] is at least 0.07.
label 1

Is the recorded value of maximum observed lethal fraction equal to or greater than 0.07 for this molecule? CN[C@@H]1C[C@H]2O[C@@](C)([C@@H]1OC)n1c3ccccc3c3c4c(c5c6ccccc6n2c5c31)C(=O)NC4 [Staurosporine]
label 1

Hi, just wondering whether CC(C)C[C@H](NC(=O)[C@H](Cc1ccccc1)NC(=O)c1cnccn1)B(O)O [Bortezomib] shows maximum observed lethal fraction of 0.07 or higher.
label 1
